test system: A549 cell line; assay: In vitro cytotoxicity assay (three day MTT microtiter assay), A549; assay type: cell-based; conditions: Homo sapiens, 72 h; A549, three days, MTT; read-out: In vitro tumor cell cytotoxicity (IC50), A549
Parameter log10 IC50: see the listing below.
All values: log10 IC50 [µg/mL].

> print(dat)
                                   compound          target  observable  numeric.result
1  O=c1[nH]sc2c1c(=O)c1cc(F)c(N3CCC(O)CC3)c(F)c1n2C1CC1  A549 cell line  log10 IC50            0.46
2  CC1CN(c2c(F)cc3c(=O)c4c(=O)[nH]sc4n(C4CC4)c3c2F)CCN1 (centres unmarked)  A549 cell line  log10 IC50            0.92
3  O=c1[nH]sc2c1c(=O)c1cc(F)c(N3CCCC(O)C3)c(F)c1n2C1CC1 (centres unmarked)  A549 cell line  log10 IC50            0.59
4  O=c1[nH]sc2c1c(=O)c1cc(F)c(N3CCSCC3)c(F)c1n2C1CC1  A549 cell line  log10 IC50            1.10

Query block: Which log10 IC50 value is on record for NCC1CCN(c2c(F)cc3c(=O)c4c(=O)[nH]sc4n(C4CC4)c3c2F)C1 (centres unmarked) ?
Result block: -0.52

* * *

Test system: DNA topoisomerase II
Experiment: DNA Breakage Assay: topoisomerase II-mediated DNA breakage (linearized 32P-labeled PBR 322 plasmid, agarose gel)
Format: biochemical, calf
Settings: concentration of compound which cleaves the DNA to smaller fragments; 30 minutes incubation
Experimental: Antitumor activity was assayed using the DNA Breakage Assay described below. The DNA breakage assay requires two major reagents: DNA topoisomerase II and radiolabeled DNA. […] The enzyme and the radiolabeled DNA are added together first, then drug is added. […] The distribution of the DNA species in the gel is assessed by autoradiography as described by T. Maniatis, et al. in "Molecular Cloning", Cold Spring Harbor Press, p. […]
OBSERVABLE: Topoisomerase II-mediated DNA breakage, Concentration (µg/mL)
Number in µg/mL, nothing else.

Would you please look over these solved cases?
> print(dat)
                                   molecule  numeric.result
1  O=c1[nH]sc2c1c(=O)c1cc(F)c(N3CCNCC3)c(F)c1n2C1CC1              32
2  O=c1[nH]sc2c1c(=O)c1cc(F)c(N3CCN(CCO)CC3)c(F)c1n2C1CC1              64
3  CC1CN(c2cc3c(cc2F)c(=O)c2c(=O)[nH]sc2n3C2CC2)CCN1C (stereo not shown)             128

We next turn to a different molecule, shown below.
Query block: Which Topoisomerase II-mediated DNA breakage, Concentration reading was recorded for the molecule O=c1[nH]sc2c1c(=O)c1cc(F)c(N3CCC(O)CC3)c(F)c1n2C1CC1 ?
Result block: 32

* * *

tested on: DNA topoisomerase II; test: DNA Breakage Assay: topoisomerase II-mediated DNA breakage (linearized 32P-labeled PBR 322 plasmid, agarose gel); assay type: biochemical, calf; design: key: SB: strong breakage; MB: moderate breakage; WB: weak breakage; details: at the concentration given
OBSERVABLE: Topoisomerase II-mediated DNA breakage, extent of breakage

Sample records with Topoisomerase II-mediated DNA breakage, extent of breakage:
> print(dat)
                                   compound  result
1  NCC1CCN(c2c(F)cc3c(=O)c4c(=O)[nH]sc4n(C4CC4)c3c2F)C1 (stereo not shown)      SB
2  CN1CCN(c2c(F)cc3c(=O)c4c(=O)[nH]sc4n(C4CC4)c3c2F)CC1      SB
3  O=c1[nH]sc2c1c(=O)c1cc(F)c(N3CCCNCC3)c(F)c1n2C1CC1      SB
4  O=c1[nH]sc2c1c(=O)c1cc(F)c(N3CCCC(O)C3)c(F)c1n2C1CC1 (stereo not shown)      SB
5  CCn1c2s[nH]c(=O)c2c(=O)c2cc(F)c(N3CCN(C)CC3)c(F)c21      MB

Query block: I'd like to know its Topoisomerase II-mediated DNA breakage, extent of breakage. The compound in question is O=c1[nH]sc2c1c(=O)c1cc(F)c(N3CCC(O)CC3)c(F)c1n2C1CC1
Result block: SB

Query block: Report Topoisomerase II-mediated DNA breakage, extent of breakage for O=c1[nH]sc2c1c(=O)c1cc(F)c(N3CCNCC3)c(F)c1n2C1CC1 please.
Result block: SB

* * *

Measured Topoisomerase II-mediated DNA breakage, Concentration, listed per entry for reference.
tested on: DNA topoisomerase II; assay: DNA Breakage Assay: topoisomerase II-mediated DNA breakage (linearized 32P-labeled PBR 322 plasmid, agarose gel); type: biochemical, calf; conditions: concentration of compound which cleaves the DNA to smaller fragments; 30 minutes incubation
Just the number please, in µg/mL, no unit attached.

See these solved cases before continuing.
> print(dat)
                                   compound                target  numeric.result
1  O=c1[nH]sc2c1c(=O)c1cc(F)c(N3CCCC(O)C3)c(F)c1n2C1CC1 (stereo not drawn)  DNA topoisomerase II              32
2  CCn1c2s[nH]c(=O)c2c(=O)c2cc(F)c(N3CCNCC3)c(F)c21  DNA topoisomerase II              64
3  O=c1[nH]sc2c1c(=O)c1cc(F)c(N3CCOCC3)c(F)c1n2C1CC1  DNA topoisomerase II              32
4  CC1CN(c2c(F)cc3c(=O)c4c(=O)[nH]sc4n(C4CC4)c3c2F)CCN1 (stereo not drawn)  DNA topoisomerase II              32

Query block: I would be grateful if you could share the reported Topoisomerase II-mediated DNA breakage, Concentration for O=c1[nH]sc2c1c(=O)c1cc(F)c(N3CCSCC3)c(F)c1n2C1CC1 .
Result block: 32

Query block: So what's the measured Topoisomerase II-mediated DNA breakage, Concentration for this one? O=c1[nH]sc2c1c(=O)c1cc(F)c(N3CCCCC3)c(F)c1n2C1CC1
Result block: 32

Query block: I'd like to know its Topoisomerase II-mediated DNA breakage, Concentration. The compound in question is CNC1CCN(c2cc3c(cc2F)c(=O)c2c(=O)[nH]sc2n3C2CC2)C1 (stereo not drawn)
Result block: 64

Query block: Entry CCn1c2s[nH]c(=O)c2c(=O)c2cc(F)c(N3CCNC(C)C3)c(F)c21 (stereo not drawn) has what Topoisomerase II-mediated DNA breakage, Concentration?
Result block: 128

Query block: Would you kindly share the measured Topoisomerase II-mediated DNA breakage, Concentration for CCn1c2cc3c(cc2c(=O)c2c(=O)[nH]sc21)OCO3 ?
Result block: 128

Query block: Entry CN1CCN(c2c(F)cc3c(=O)c4c(=O)[nH]sc4n(C4CC4)c3c2F)CC1 has what Topoisomerase II-mediated DNA breakage, Concentration?
Result block: 32

Query block: Given the compound NCC1CCN(c2c(F)cc3c(=O)c4c(=O)[nH]sc4n(C4CC4)c3c2F)C1 (stereo not drawn) , what is its reported Topoisomerase II-mediated DNA breakage, Concentration?
Result block: 32

* * *

test system: Hela cells; test: In vitro cytotoxicity assay (three day MTT microtiter assay), Hela; format: cell-based; details: Homo sapiens, 72 h; Hela cells, three days, MTT; read-out: In vitro tumor cell cytotoxicity (IC50), Hela
IC50 values by entry
Write the value in µg/mL as a bare number.

> print(dat)
                                   compound  numeric.result
1  O=c1[nH]sc2c1c(=O)c1cc(F)c(N3CCOCC3)c(F)c1n2C1CC1               7
2  O=c1[nH]sc2c1c(=O)c1cc(F)c(N3CCCCC3)c(F)c1n2C1CC1             3.9
3  O=c1[nH]sc2c1c(=O)c1cc(F)c(NC3CCN(Cc4ccccc4)CC3)c(F)c1n2C1CC1            0.55
4  NC1CCN(c2c(F)cc3c(=O)c4c(=O)[nH]sc4n(C4CC4)c3c2F)C1 (stereo not drawn)            0.95

Query block: // query IC50 value for entry O=c1[nH]sc2c1c(=O)c1cc(F)c(N3CCN(CCO)CC3)c(F)c1n2C1CC1
Result block: 4

Query block: Entry CN1CCN(c2c(F)cc3c(=O)c4c(=O)[nH]sc4n(C4CC4)c3c2F)CC1 has what IC50?
Result block: 1.3

* * *

tested on: DNA topoisomerase II; test: DNA Breakage Assay: topoisomerase II-mediated DNA breakage (linearized 32P-labeled PBR 322 plasmid, agarose gel); type: biochemical, calf; set-up: key: SB: strong breakage; MB: moderate breakage; WB: weak breakage; settings: at the concentration given
OBSERVABLE: Topoisomerase II-mediated DNA breakage, extent of breakage

> print(dat)
                                    compound  result
 1  O=c1[nH]sc2c1c(=O)c1cc(F)c(N3CCCCC3)c(F)c1n2C1CC1 [Example 8]      MB
 2  O=c1[nH]sc2c1c(=O)c1cc(F)c(N3CCC(O)C3)cc1n2C1CC1 (stereo not drawn) [Example 23]      WB
 3  CCn1c2s[nH]c(=O)c2c(=O)c2cc(F)c(N3CCC(N)C3)c(F)c21 (stereo not drawn) [Example 17]      WB
 4  CCn1c2s[nH]c(=O)c2c(=O)c2cc(F)c(N3CCNCC3)c(F)c21 [Example 14]      MB
 5  O=c1[nH]sc2c1c(=O)c1cc(F)c(N3CCCC3)c(F)c1n2C1CC1 [Example 32]      WB
 6  O=c1[nH]sc2c1c(=O)c1cc(F)c(N3CCNCC3)cc1n2C1CC1 [Example 19]      MB
 7  CCn1c2s[nH]c(=O)c2c(=O)c2cc(F)c(N3CCNC(C)C3)c(F)c21 (stereo not drawn) [Example 15]      MB
 8  CC1CN(c2cc3c(cc2F)c(=O)c2c(=O)[nH]sc2n3C2CC2)CCN1C (stereo not drawn) [Example 22]      WB
 9  O=c1[nH]sc2c1c(=O)c1cc(F)c(N3CCN(CCO)CC3)c(F)c1n2C1CC1 [Example 5]      MB
10  O=c1[nH]sc2c1c(=O)c1cc(F)c(N3CCOCC3)c(F)c1n2C1CC1 [Example 1]      SB

Query block: I have this compound here, NC1CCN(c2c(F)cc3c(=O)c4c(=O)[nH]sc4n(C4CC4)c3c2F)C1 (stereo not drawn) [Example 11] , and I need its recorded Topoisomerase II-mediated DNA breakage, extent of breakage.
Result block: SB

Query block: Quick one: Topoisomerase II-mediated DNA breakage, extent of breakage for O=c1[nH]sc2c1c(=O)c1cc(F)c(N3CCSCC3)c(F)c1n2C1CC1 [Example 6] ?
Result block: SB

Query block: Could you tell me which Topoisomerase II-mediated DNA breakage, extent of breakage is on file for CNC1CCN(c2cc3c(cc2F)c(=O)c2c(=O)[nH]sc2n3C2CC2)C1 (stereo not drawn) [Example 25] ?
Result block: WB

Query block: // query Topoisomerase II-mediated DNA breakage, extent of breakage value for entry CC1CN(c2c(F)cc3c(=O)c4c(=O)[nH]sc4n(C4CC4)c3c2F)CCN1 (stereo not drawn) [Example 3]
Result block: SB

Query block: Would you kindly share the measured Topoisomerase II-mediated DNA breakage, extent of breakage for CCn1c2cc3c(cc2c(=O)c2c(=O)[nH]sc21)OCO3 [Example 29] ?
Result block: WB
